These data points were gathered from patent US20250346573A1.

assay: Study on pharmacokinetics of rats (oral gavage, plasma LC-MS/MS); type: in vivo; details: rat, female SD rats, po. 3 mg/kg
observed-property: AUC(0-t) (ng·h/mL)

The cases that follow already have their AUC(0-t) on record.
compound: CNC(=O)c1ccc(N2CCN(Cc3ccc4nc(C)c(=O)[nH]c4c3F)CC2)c(F)n1 [AZD9574, reference compound]
AUC(0-t) [ng·h/mL]: 6460

compound: CCc1nc2c(F)cc(CN3CCN(c4ccc(C(=O)NCCOC)nc4C)CC3)cc2[nH]c1=O
AUC(0-t) [ng·h/mL]: 17000

a = Cc1nc(C(=O)NC2CC2)ccc1N1CCN(Cc2cc(F)c3nc(C)c(=O)[nH]c3c2)CC1
b = CCc1nc2c(F)cc(CN3CCN(c4ccc(C(=O)NC)nc4C)CC3)cc2[nH]c1=O
Data request: Sorting ascending by AUC(0-t), which comes first: a or b ? Write down the label of the entry you select.
Data returned: a
(a: 21300 ng·h/mL, b: 50600 ng·h/mL)

====

experiment: Study on pharmacokinetics of rats (oral gavage, plasma LC-MS/MS); type: in vivo; settings: female SD rats, po. 3 mg/kg
observed-property: Cl_F_obs (mL/min/kg)

compound: CCc1nc2c(F)cc(CN3CCN(c4ccc(C(=O)NCCOC)nc4C)CC3)cc2[nH]c1=O
Cl_F_obs, mL/min/kg: 3
//
compound: CNC(=O)c1ccc(N2CCN(Cc3ccc4nc(C)c(=O)[nH]c4c3F)CC2)c(F)n1 [AZD9574, reference compound]
Cl_F_obs, mL/min/kg: 6.17

1 = Cc1nc(C(=O)NC2CC2)ccc1N1CCN(Cc2cc(F)c3nc(C)c(=O)[nH]c3c2)CC1
2 = CCc1nc2c(F)cc(CN3CCN(c4ccc(C(=O)NC)nc4C)CC3)cc2[nH]c1=O
Data request: Hey, between 1 and 2 which has a smaller measured Cl_F_obs? Use the label to indicate which entry you chose.
Data returned: 2

====

tested on: BRCA1-mutated HCC1395 cells; test: Proliferation inhibitory test of BRCA1-mutated HCC1395 cells (CCK-8); type: cell-based; conditions: Homo sapiens, 120 h, 5 days, read-out: IC50 (nM), inhibitory activity against BRCA1-mutated HCC1395 cells
observed-property: IC50 (nM)

These recorded examples may help you get a feel for the data.
compound: CNC(=O)c1ccc(N2CCN(Cc3cc4[nH]c(=O)c(C)nc4c(F)c3F)CC2)c(C)n1
units-label: nM
IC50: 2.29

compound: CCc1cc2ncc(CN3CCN(c4ccc(C(=O)NC)nc4)CC3)cc2[nH]c1=O [AZD5305, reference compound]
units-label: nM
IC50: 1.76

compound: CNC(=O)c1ccc(N2CCN(Cc3cc4[nH]c(=O)c(C)nc4cc3OC)CC2)c(Cl)n1
units-label: nM
IC50: 0.95

I = CNC(=O)c1ccc(N2CCN(Cc3cc(Cl)c4nc(C)c(=O)[nH]c4c3)CC2)c(C)n1
II = CNC(=O)c1ccc(N2CCN(Cc3cc(F)c4nc(C)c(=O)[nH]c4c3)CC2)c(C)n1
Data request: Compare reported IC50 values for I and II . Which is lower? Give the chosen item's label as your response.
Data returned: I
(I: 1.31 nM, II: 2.45 nM)

====

experiment: Study on pharmacokinetics of rats (oral gavage, plasma LC-MS/MS); format: in vivo; conditions: rat, female SD rats, po. 3 mg/kg
observed-property: half-life (min)

molecule: CNC(=O)c1ccc(N2CCN(Cc3ccc4nc(C)c(=O)[nH]c4c3F)CC2)c(F)n1 [AZD9574, reference compound]
half-life (min): 364
--
molecule: CCc1nc2c(F)cc(CN3CCN(c4ccc(C(=O)NC)nc4C)CC3)cc2[nH]c1=O
half-life (min): 443
--
molecule: Cc1nc(C(=O)NC2CC2)ccc1N1CCN(Cc2cc(F)c3nc(C)c(=O)[nH]c3c2)CC1
half-life (min): 376
--
molecule: CCc1nc2c(F)cc(CN3CCN(c4ccc(C(=O)NCCOC)nc4C)CC3)cc2[nH]c1=O
half-life (min): 312
